- Test system: PfHDP1 homeodomain (GST-tagged)
- Assay Notes: gcPBM binding intensity (ln(normalized median fluorescence intensity)); higher = stronger DNA binding
Over roughly 25,000 sequences, “ln(normalized median fluorescence intensity)” has its median near 6.7; the highest 2% begin near 10. This is one part of a sample in which the highest values are shown more often than they occur.
Reported values of gcPBM binding intensity (ln) for individual entries
Enter a number only.

ATATTCTTCTAAAGGCGTACATCTACATTTATGAAA [XGTACX_site2145] : 6.28
TTATAAAAATAATATCGTACAAATGACATAGATGAA [XGTACX_site2570] : 6.6
TTTGAAAAGTTGAAATGTACACATTTACACATATTT [XGTACX_site1641] : 6.24
CATATTTTGTGAAAAAGTACATATATATATATATAT [XGTACX_site6295] : 9.38
ATATAAACACTGAATGCATGCACATATATATATATA [TGCATGCA_site940] : 9.37
AAAATATAATATAATGCACACATAAACAAAAAAAAA [CACACA_site8161] : 10.1
TTATAAAATGGGCAAACACACACAAAAAAAAGATAT [CACACA_site8476] : 7.42
CTATTTCAATTTAGTGCACACATTTTAATTTATAAG [CACACA_site2040] : 10.9
AATAATTTGGTCTTATCAAAAATTAAAAATAAATAA [XGTACX_negctrl_site430] : 6.05
ATATATATATATCAGAGTACATTCTTTAAAATATAT [XGTACX_site5915] : 8.7

## Task GET gcPBM binding intensity (ln) where system = PfHDP1 homeodomain (GST-tagged) and item = TATACTTGTAAATGCACACATAAGATGCGACTAATG [CACACA_site2118]
## Result 9.37

## Task State, for PfHDP1 homeodomain (GST-tagged), measured gcPBM binding intensity (ln) of the sequence listed here: ATTTTAAATGTTATGCGTACATATTAATCCTACTTA [XGTACX_site1344]
## Result 6.69

## Task Answer briefly: gcPBM binding intensity (ln) recorded on PfHDP1 homeodomain (GST-tagged) for CATGCTACATCTTATTGTACTTATCTAATGTTAGTA [XGTACX_site1863]
## Result 6.75

## Task Give gcPBM binding intensity (ln) for this entry on PfHDP1 homeodomain (GST-tagged): TTAATGTTATATGTGTGTACATATAAGTTTAGTAAA [XGTACX_site4651]
## Result 6.53

## Task Check PfHDP1 homeodomain (GST-tagged) data and give gcPBM binding intensity (ln) for ACCCATTTTAATTTAGTGCACATTTTACCTTTATAC .
## Result 10.1

## Task Retrieve gcPBM binding intensity (ln) on PfHDP1 homeodomain (GST-tagged); query AACGGGTAATGCACAAAAAAAAAAAAATAAAATAAA [TGCATGCA_negctrl_site474]
## Result 10.9

## Task Using PfHDP1 homeodomain (GST-tagged) as the test system, report measured gcPBM binding intensity (ln) of TATATATATATATATATATATATATATATAATATTA [XGTACX_negctrl_site558] .
## Result 9.37

## Task // fetch gcPBM binding intensity (ln); item: TATAATATATTTTAATGTACGTACATCCCGATTAAT [XGTACX_site7651] ; system: PfHDP1 homeodomain (GST-tagged)
## Result 6.63

## Task Find gcPBM binding intensity (ln) for GCACAAATATATATATATATATATATATATATATAT [GTGCAC_negctrl_site661] on PfHDP1 homeodomain (GST-tagged) and write it down.
## Result 9.39

## Task Report the value of gcPBM binding intensity (ln) obtained on PfHDP1 homeodomain (GST-tagged) for ATATATACATATAAATGTACATAATTATTATGCACA [XGTACX_site1261] .
## Result 9.09

## Task # lookup: PfHDP1 homeodomain (GST-tagged) gcPBM binding intensity (ln), key = TTTTTTATTTTATTTTTTTCTGCTTATCCACATTAG [XGTACX_negctrl_site108]
## Result 6.48

---

- Tested on: PfHDP1 homeodomain (GST-tagged)
- Assay Notes: gcPBM binding intensity (ln(normalized median fluorescence intensity)); higher = stronger DNA binding
Over roughly 25,000 sequences, “ln(normalized median fluorescence intensity)” has its median near 6.7; the highest 2% begin near 10. The sample as a whole holds a higher share of the highest values than the screen did.
Result Type: gcPBM binding intensity (ln)
Number only, no unit.

GTAAAATTTCGGATTTGTACACATGGCTATGAAAAA [XGTACX_site939] : 6.57
AAAGTAAATTTAAGCACACACAACGAATTTTTATAC [CACACA_site1959] : 6.84
TATAAAAAAATAAAAGGAATATACTTGCAAAGGGTA [CACACA_negctrl_site1438] : 8.14
AATGTGCAAACAAACTGTACTTTTTTTTTTTTTTTT [XGTACX_site928] : 10.6
TATATAACCGAGTGCACACACAAAAAAAAAGTGAAC [CACACA_site6806] : 10.8
TATGTGCACCCATGTACATGCGGACATATGTTATAT [TGCATGCA_site383] : 10.6
TGAACATATTAAAATTGTACATATGCACAATATGTA [XGTACX_site6801] : 9.28
TATTTTAGTAAAGGTGGTACTTTTAAGTTCATGTAT [XGTACX_site1854] : 6.23

## Task Name the recorded gcPBM binding intensity (ln) of the sequence listed here: TTACATGCTAAAATTTGTACATATATGATAAATATT [XGTACX_site2648]
## Result 6.47

---

- Tested on: PfHDP1 homeodomain (GST-tagged)
- Assay Notes: gcPBM binding intensity (ln(normalized median fluorescence intensity)); higher = stronger DNA binding
Over roughly 25,000 sequences, “ln(normalized median fluorescence intensity)” has its median near 6.7; the highest 2% begin near 10. Many of the other results were omitted from the sample, so the highest values are more common in it than they were.
Result Type: gcPBM binding intensity (ln)
Please respond with just the number, no unit label.

Reference set, count: 5
TTCTTAATATTGCATGCACACTATATAATAATTGAA [CACACA_site4720] : 9.18
TTTTTTTTTTTTTAAACATGCAAAATATATAATTTT [TGCATGCA_site633] : 6.44
TTATTTAAATATTGATGTACTCTCCTTATTATAATA [XGTACX_site1240] : 6.76
CTTATGTGCATACCTACACACTTACCTATATTTATA [CACACA_site7411] : 9.67
ATATTTTTATATAATGAACACACATATTATATCATT [CACACA_site8446] : 6.22

## Task Could you please provide reported gcPBM binding intensity (ln) for TATATATATATATATACATGCATATATATAATATAT [TGCATGCA_site763] ? Thanks!
## Result 9.32

---

- System: PfHDP1 homeodomain (GST-tagged)
- Assay Notes: gcPBM binding intensity (ln(normalized median fluorescence intensity)); higher = stronger DNA binding
Whole data set: some 25,000 sequences, median “ln(normalized median fluorescence intensity)” near 6.7, cut for the highest 2% near 10. This is one part of a sample in which the highest values are shown more often than they occur.
gcPBM binding intensity (ln) vs 10: at or above is yes, below is no.

AGGAAAATTATGAATGGTACAGAATATATTAGGAGA [XGTACX_site6282] : no

Next:
## Task I'd appreciate it if you could say whether GTATGTTTGTTATGCACACAAATGCATCTTATTTCC [CACACA_site2690] has gcPBM binding intensity (ln) at least equal to 10.
## Result yes

---

- Test system: PfHDP1 homeodomain (GST-tagged)
- Assay Notes: gcPBM binding intensity (ln(normalized median fluorescence intensity)); higher = stronger DNA binding
Whole data set: some 25,000 sequences, median “ln(normalized median fluorescence intensity)” near 6.7, cut for the highest 2% near 10. What follows is part of a selection rich in the highest values, with near analogues and random picks from the rest.
Result Type: gcPBM binding intensity (ln)
The answer should be a number; do not append a unit.

TCTTATTAAAATATTTATATAGGTAATCACAATATT [GTGCAC_negctrl_site568] : 6.37
CAAAACATTTTATCTACACACATATATAAATAAATA [CACACA_site3220] : 6.36
TATATATATATATATACATGCATATTTTTTATTTTT [TGCATGCA_site464] : 9.46
ATTATTACATATAATGCATGTGCATATATTTTTATA [TGCATGCA_site701] : 11
ATATATGCATATTATACACACATATGTATATACATT [CACACA_site965] : 7.81

// next entry
## Task Enter recorded gcPBM binding intensity (ln) with PfHDP1 homeodomain (GST-tagged) for TCTACATATTAATTATGTACGAATTATTATTAGTAA [XGTACX_site6924] here.
## Result 6.03
